Value source: ChEMBL document CHEMBL2069290

Target: Amyloid-beta precursor protein (Homo sapiens, UniProt P05067)
Sequence (P05067 whole entry): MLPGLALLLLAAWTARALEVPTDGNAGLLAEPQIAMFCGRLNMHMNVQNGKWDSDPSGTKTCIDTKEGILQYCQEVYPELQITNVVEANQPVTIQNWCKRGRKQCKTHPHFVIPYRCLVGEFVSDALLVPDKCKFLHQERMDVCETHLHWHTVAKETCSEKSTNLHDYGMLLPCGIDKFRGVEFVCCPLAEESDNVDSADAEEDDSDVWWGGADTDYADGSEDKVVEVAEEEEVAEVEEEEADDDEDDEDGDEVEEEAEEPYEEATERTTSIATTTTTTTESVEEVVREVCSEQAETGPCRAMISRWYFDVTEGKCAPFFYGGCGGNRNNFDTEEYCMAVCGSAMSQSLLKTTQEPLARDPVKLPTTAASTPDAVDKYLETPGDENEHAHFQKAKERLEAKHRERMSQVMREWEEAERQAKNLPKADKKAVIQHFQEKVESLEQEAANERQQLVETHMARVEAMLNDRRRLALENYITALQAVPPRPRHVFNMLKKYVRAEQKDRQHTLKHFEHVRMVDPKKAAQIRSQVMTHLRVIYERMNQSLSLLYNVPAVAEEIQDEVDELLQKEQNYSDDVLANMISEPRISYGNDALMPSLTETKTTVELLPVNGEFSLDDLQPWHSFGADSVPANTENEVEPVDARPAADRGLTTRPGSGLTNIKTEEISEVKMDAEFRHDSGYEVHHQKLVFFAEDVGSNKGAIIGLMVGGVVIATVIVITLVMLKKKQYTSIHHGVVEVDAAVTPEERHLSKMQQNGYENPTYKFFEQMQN
Assay: Binding affinity to amyloid beta(1 to 42) aggregates after 30 mins by Thioflavin-S-based fluorescence assay
Entries and their Ki
Respond numerically; units are nM and should not be typed.

Some entries whose results are on file:
CN(C)c1ccc(C=C2C(=O)Nc3ccc(I)cc32)cc1; 4670
CNc1ccc(/C=C2\Nc3ccc(I)cc3C2=O)cc1; 116
CNc1ccc(C=C2C(=O)Nc3ccc(I)cc32)cc1; 5060

Form field: reported Ki of "CN(C)c1ccc(/C=C2\Nc3ccc(I)cc3C2=O)cc1"
31

###

System: Brain
Assay: Ratio of drug uptake in ddY mouse brain after 2 mins to drug uptake in ddY mouse brain after 30 mins
Type: ADME, tissue-based
Settings: in vivo
assay readout: Ratio
Provide a numeric answer; units are not to be included.

Some entries whose results are on file:
CN(C)c1ccc(/N=N/c2nc3ccc(OCCOCCOCC[18F])cc3s2)cc1; 1.23
CN(C)c1ccc(/C=C2\Nc3ccc([125I])cc3C2=O)cc1; 4
CNc1ccc(/C=C2\Nc3ccc([125I])cc3C2=O)cc1; 3.31
[11CH3]Nc1ccc(-c2ccc3ccccc3n2)cc1; 3.65
CN(C)c1ccc(C=C2C(=O)Nc3ccc([125I])cc32)cc1; 1.7

API: the following record is the query input.
Form field: reported Ratio of "O=C1/C(=C/c2ccc(-c3cccc([125I])c3)o2)NC(=S)N1CCc1c[nH]cn1"
2.33

###

Molecular target: Microtubule-associated protein tau (Homo sapiens, UniProt P10636)
Sequence (P10636 whole entry): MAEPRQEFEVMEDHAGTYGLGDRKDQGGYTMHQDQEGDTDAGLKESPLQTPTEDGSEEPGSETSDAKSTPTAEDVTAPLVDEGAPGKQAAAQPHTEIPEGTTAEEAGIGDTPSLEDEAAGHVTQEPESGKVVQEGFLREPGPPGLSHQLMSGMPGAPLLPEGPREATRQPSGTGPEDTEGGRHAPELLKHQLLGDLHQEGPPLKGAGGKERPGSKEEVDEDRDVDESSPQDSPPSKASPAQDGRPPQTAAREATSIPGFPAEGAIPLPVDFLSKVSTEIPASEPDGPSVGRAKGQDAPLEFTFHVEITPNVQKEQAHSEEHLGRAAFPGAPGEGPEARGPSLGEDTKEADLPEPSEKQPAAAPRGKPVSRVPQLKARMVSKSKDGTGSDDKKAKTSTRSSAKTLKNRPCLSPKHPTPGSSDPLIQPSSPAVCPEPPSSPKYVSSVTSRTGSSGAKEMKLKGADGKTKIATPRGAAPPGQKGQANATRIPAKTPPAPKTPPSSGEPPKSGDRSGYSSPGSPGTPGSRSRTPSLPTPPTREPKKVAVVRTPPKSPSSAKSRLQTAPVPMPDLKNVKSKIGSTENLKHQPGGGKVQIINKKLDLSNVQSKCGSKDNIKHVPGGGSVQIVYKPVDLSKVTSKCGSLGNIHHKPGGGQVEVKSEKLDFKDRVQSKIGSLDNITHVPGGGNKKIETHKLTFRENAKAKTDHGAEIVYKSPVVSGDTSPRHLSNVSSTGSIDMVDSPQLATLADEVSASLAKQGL
Experiment: Binding affinity to human Tau aggregates after 30 mins by Thioflavin-S-based fluorescence assay
assay readout: pKi
Would you please state pKi, meaning minus log10 of the concentration in mol/L, as a bare number?

Some entries whose results are on file:
CNc1ccc(/C=C2\Nc3ccc(I)cc3C2=O)cc1; 6.95
CN(C)c1ccc(C=C2C(=O)Nc3ccc(I)cc32)cc1; 6.22
CN(C)c1ccc(/C=C2\Nc3ccc(I)cc3C2=O)cc1; 7.77

API: the following record is the query input.
Form field: reported pKi of "CNc1ccc(C=C2C(=O)Nc3ccc(I)cc32)cc1"
5.85
